B1: CCNC (parent)
chain: QSSHYLQWILDKQDLLKERQKDLK

Variants of: B1
ASSAY_TEXT: protein stability index of a GFP-peptide fusion (GPS, HEK-293T) (PSI 1-6); higher = more stable;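 also: lentivirally expressed fusions sorted by FACS into six bins by GFP to DsRed ratio, PSI derived from sequencing read proportions per bin multiplied by bin number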
MEASUREMENT_CONDITIONS: c terminus: a fixed tail appended
Would you mind classing the entries by protein stability index? Ranges: low-valued = under 3, mid-valued = from 3 up to 4, high-valued = 4 and over

{"columns": ["MUTATION_STRING", "ASSIGNED_CATEGORY"],
 "data": [
  ["K17W", "low-valued"],
  ["L16I", "mid-valued"],
  ["I9P", "high-valued"],
  ["L10Q", "high-valued"],
  ["L23R", "mid-valued"],
  ["K17I", "low-valued"],
  ["I9Q", "high-valued"],
  ["L16P", "high-valued"],
  ["L15C", "mid-valued"],
  ["Q7M", "mid-valued"]
]}
